# target desc: Dual specificity protein kinase CLK3 (Homo sapiens, UniProt P49761)
# Sequence (P49761 whole entry): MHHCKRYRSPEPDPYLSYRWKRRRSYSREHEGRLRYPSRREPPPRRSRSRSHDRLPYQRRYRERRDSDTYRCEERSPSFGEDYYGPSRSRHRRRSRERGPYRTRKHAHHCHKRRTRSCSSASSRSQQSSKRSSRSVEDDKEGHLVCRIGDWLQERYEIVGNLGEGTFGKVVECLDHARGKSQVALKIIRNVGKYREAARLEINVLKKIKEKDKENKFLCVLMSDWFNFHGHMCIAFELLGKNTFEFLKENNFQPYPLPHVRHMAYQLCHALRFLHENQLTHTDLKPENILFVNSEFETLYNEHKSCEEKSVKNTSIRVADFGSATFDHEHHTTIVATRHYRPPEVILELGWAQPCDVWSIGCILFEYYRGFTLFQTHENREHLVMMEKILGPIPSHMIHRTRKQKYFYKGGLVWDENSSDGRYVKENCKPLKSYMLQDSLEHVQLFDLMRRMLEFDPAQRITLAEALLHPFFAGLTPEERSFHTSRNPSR
observable: IC50 (nM)
One number for each entry, in nM.

Query block: // query IC50 value for entry "CN1C(=O)[C@@H](N2CCc3c(nn(Cc4ccccc4)c3Br)C2=O)COc2ccccc21"
Result block: 1000

====

# target desc: MAP kinase-activated protein kinase 2 (Homo sapiens)
# Sequence (P49137 whole entry): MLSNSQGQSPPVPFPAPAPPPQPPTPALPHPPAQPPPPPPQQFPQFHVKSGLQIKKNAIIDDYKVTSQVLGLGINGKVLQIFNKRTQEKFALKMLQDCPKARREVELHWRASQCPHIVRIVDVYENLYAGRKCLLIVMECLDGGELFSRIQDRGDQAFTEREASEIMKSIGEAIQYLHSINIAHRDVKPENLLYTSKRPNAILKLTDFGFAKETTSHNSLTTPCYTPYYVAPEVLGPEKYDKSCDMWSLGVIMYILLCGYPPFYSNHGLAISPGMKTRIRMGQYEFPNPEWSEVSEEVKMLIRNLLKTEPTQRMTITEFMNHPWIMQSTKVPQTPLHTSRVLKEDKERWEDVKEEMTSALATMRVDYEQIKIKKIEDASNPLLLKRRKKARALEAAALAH
# test: MAPKAPK2(MPK2LGRH) Takeda global kinase panel
observable: pIC50
Numbers only, as −log10 of the molar value.

Query block: // query pIC50 value for entry CN1C(=O)[C@@H](N2CCc3c(nn(Cc4ccccc4)c3Br)C2=O)COc2ccccc21 [TP-030-2]
Result block: 6.00

====

# target desc: Serine/threonine-protein kinase H1 (Homo sapiens, UniProt P11801)
# Sequence (P11801 whole entry): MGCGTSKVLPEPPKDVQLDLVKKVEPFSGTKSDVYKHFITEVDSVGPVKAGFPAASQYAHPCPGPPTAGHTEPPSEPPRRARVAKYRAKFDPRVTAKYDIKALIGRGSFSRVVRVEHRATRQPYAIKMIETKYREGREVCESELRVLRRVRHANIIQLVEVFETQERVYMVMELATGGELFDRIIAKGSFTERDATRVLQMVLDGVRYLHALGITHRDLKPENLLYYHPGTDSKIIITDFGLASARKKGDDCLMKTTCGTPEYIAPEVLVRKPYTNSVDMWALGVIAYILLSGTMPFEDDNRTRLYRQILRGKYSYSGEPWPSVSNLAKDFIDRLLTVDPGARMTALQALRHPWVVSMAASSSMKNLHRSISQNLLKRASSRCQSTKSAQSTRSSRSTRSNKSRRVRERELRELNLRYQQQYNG
observable: IC50 (nM)
Numbers only, in nM.

Query block: // query IC50 value for entry CN1C(=O)[C@@H](N2CCc3c(nn(Cc4ccccc4)c3Br)C2=O)COc2ccccc21 [TP-030-2]
Result block: 1000

====

Sequence of the target: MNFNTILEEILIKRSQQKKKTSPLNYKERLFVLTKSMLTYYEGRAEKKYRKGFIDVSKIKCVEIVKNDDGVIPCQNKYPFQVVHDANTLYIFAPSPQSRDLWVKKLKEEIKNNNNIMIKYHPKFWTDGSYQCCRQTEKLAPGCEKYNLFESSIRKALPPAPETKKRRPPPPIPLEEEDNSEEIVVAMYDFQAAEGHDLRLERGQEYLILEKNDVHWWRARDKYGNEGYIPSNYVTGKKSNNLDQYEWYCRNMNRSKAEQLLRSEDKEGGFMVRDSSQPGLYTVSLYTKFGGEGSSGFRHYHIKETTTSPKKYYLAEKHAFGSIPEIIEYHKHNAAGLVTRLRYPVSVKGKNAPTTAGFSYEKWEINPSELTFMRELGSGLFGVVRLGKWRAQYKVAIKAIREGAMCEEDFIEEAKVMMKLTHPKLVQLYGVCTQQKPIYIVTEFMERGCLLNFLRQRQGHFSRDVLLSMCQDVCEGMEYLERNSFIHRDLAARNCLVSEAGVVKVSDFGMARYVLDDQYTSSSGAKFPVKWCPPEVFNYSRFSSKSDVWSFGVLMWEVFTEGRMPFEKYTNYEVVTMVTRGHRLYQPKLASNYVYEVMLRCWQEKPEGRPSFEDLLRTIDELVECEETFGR
observable: pIC50
Give bare numbers, as −log10 of the molar value.

Query block: // query pIC50 value for entry CN1C(=O)[C@@H](N2CCc3c(nn(Cc4ccccc4)c3Br)C2=O)COc2ccccc21 [TP-030-2]
Result block: 6.00

====

# target desc: Eukaryotic translation initiation factor 2-alpha kinase 1 (Homo sapiens, UniProt Q9BQI3)
# Sequence (Q9BQI3 whole entry): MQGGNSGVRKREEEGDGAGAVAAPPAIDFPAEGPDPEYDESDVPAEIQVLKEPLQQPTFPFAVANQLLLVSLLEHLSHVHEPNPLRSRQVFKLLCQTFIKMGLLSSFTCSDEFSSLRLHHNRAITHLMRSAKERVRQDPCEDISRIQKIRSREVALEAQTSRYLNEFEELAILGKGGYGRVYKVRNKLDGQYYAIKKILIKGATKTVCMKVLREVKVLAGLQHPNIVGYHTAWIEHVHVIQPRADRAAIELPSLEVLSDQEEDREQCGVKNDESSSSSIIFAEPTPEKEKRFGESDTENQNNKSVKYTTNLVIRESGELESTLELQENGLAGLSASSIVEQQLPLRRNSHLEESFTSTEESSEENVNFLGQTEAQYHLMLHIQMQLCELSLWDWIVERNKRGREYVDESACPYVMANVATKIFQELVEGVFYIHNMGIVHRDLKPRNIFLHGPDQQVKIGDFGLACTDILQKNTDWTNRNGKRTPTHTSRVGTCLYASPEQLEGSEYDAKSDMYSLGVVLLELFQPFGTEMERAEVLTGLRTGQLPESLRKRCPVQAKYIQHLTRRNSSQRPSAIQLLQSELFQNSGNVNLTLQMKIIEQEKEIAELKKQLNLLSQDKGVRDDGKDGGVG
observable: pIC50
Answers are plain numbers, as −log10 of the molar value.

Query block: // query pIC50 value for entry "CN1C(=O)[C@@H](N2CCc3c(nn(Cc4ccccc4)c3Br)C2=O)COc2ccccc21"
Result block: 6.00

====

# target desc: Serine/threonine-protein kinase RIO2 (Homo sapiens, UniProt Q9BVS4)
observable: IC50 (nM)
Give bare numbers, in nM.

Query block: // query IC50 value for entry "CN1C(=O)[C@@H](N2CCc3c(nn(Cc4ccccc4)c3Br)C2=O)COc2ccccc21"
Result block: 1000

====

# target desc: UniProtKB O14965
observable: IC50 (nM)
One number for each entry, in nM.

Query block: // query IC50 value for entry "CN1C(=O)[C@@H](N2CCc3c(nn(Cc4ccccc4)c3Br)C2=O)COc2ccccc21"
Result block: 1000

====

# target desc: Tyrosine-protein kinase SYK (Homo sapiens, UniProt P43405)
observable: pIC50
Answers are plain numbers, as −log10 of the molar value.

Query block: // query pIC50 value for entry "CN1C(=O)[C@@H](N2CCc3c(nn(Cc4ccccc4)c3Br)C2=O)COc2ccccc21"
Result block: 6.00

====

# target desc: Calcium/calmodulin-dependent protein kinase type 1G (Homo sapiens, UniProt Q96NX5)
# Sequence (Q96NX5 whole entry): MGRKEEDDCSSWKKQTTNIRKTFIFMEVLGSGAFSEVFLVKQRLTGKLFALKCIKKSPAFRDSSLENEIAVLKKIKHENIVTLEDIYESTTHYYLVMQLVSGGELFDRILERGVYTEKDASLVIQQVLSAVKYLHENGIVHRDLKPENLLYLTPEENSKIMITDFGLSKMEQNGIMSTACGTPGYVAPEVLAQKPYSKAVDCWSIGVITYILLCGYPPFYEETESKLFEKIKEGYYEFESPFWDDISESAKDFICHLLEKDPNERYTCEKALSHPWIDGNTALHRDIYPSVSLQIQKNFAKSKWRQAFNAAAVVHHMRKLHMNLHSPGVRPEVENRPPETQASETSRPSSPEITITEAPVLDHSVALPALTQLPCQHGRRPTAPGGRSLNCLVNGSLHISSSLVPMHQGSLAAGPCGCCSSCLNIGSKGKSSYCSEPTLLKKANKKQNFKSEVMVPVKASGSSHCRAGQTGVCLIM
# test: CaMK1gamma(CA1GLGN1) Takeda global kinase panel
observable: pIC50
Give bare numbers, as −log10 of the molar value.

Query block: // query pIC50 value for entry CN1C(=O)[C@@H](N2CCc3c(nn(Cc4ccccc4)c3Br)C2=O)COc2ccccc21 [TP-030-2]
Result block: 6.00

====

# target desc: Activin receptor type-1-like (Homo sapiens)
observable: pIC50
Give bare numbers, as −log10 of the molar value.

Query block: // query pIC50 value for entry "CN1C(=O)[C@@H](N2CCc3c(nn(Cc4ccccc4)c3Br)C2=O)COc2ccccc21"
Result block: 6.00

====

# target desc: Vascular endothelial growth factor receptor 1 (Homo sapiens)
observable: pIC50
One number for each entry, as −log10 of the molar value.

Query block: // query pIC50 value for entry "CN1C(=O)[C@@H](N2CCc3c(nn(Cc4ccccc4)c3Br)C2=O)COc2ccccc21"
Result block: 6.00

====

# target desc: UniProt Q12866
# Sequence (Q12866 whole entry): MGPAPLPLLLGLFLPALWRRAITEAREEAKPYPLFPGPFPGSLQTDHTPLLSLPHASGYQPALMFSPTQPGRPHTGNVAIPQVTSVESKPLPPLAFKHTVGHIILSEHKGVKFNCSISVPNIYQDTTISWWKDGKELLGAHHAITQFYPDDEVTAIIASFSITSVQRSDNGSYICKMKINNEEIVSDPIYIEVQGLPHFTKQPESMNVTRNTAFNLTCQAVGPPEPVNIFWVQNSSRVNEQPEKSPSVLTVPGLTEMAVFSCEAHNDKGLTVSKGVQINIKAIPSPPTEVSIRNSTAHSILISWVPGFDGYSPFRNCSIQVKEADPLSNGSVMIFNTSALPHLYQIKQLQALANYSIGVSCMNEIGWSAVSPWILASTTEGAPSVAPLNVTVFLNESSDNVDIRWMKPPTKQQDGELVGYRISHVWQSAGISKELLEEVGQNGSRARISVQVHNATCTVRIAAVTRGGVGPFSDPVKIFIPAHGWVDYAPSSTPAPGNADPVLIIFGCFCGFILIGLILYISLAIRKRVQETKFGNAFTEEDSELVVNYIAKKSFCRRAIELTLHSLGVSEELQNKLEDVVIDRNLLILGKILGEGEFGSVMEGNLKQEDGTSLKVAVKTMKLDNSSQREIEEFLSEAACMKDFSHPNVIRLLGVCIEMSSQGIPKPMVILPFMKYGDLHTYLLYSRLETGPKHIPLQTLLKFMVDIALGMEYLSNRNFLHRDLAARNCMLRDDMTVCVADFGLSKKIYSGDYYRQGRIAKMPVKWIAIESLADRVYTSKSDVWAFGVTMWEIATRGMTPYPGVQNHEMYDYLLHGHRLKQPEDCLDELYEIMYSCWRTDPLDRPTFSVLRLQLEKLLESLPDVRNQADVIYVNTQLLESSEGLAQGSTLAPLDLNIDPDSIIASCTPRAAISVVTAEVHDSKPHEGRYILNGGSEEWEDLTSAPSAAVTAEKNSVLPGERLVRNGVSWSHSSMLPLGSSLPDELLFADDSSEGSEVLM
observable: IC50 (nM)
Give bare numbers, in nM.

Query block: // query IC50 value for entry "CN1C(=O)[C@@H](N2CCc3c(nn(Cc4ccccc4)c3Br)C2=O)COc2ccccc21"
Result block: 1000

====

# target desc: UniProtKB O75676
observable: IC50 (nM)
Answers are plain numbers, in nM.

Query block: // query IC50 value for entry "CN1C(=O)[C@@H](N2CCc3c(nn(Cc4ccccc4)c3Br)C2=O)COc2ccccc21"
Result block: 1000

====

# target desc: Ephrin type-A receptor 4 (Homo sapiens)
observable: pIC50
Give bare numbers, as −log10 of the molar value.

Query block: # query: pIC50 | item "CN1C(=O)[C@@H](N2CCc3c(nn(Cc4ccccc4)c3Br)C2=O)COc2ccccc21" | system: Ephrin type-A receptor 4 (Homo sapiens)
Result block: 6.00

====

# target desc: Dual specificity protein kinase CLK2 (Homo sapiens, UniProt P49760)
observable: IC50 (nM)
One number for each entry, in nM.

Query block: // query IC50 value for entry "CN1C(=O)[C@@H](N2CCc3c(nn(Cc4ccccc4)c3Br)C2=O)COc2ccccc21"
Result block: 1000

====

# target desc: Vascular endothelial growth factor receptor 2 (Homo sapiens, UniProt P35968)
# Sequence (P35968 whole entry): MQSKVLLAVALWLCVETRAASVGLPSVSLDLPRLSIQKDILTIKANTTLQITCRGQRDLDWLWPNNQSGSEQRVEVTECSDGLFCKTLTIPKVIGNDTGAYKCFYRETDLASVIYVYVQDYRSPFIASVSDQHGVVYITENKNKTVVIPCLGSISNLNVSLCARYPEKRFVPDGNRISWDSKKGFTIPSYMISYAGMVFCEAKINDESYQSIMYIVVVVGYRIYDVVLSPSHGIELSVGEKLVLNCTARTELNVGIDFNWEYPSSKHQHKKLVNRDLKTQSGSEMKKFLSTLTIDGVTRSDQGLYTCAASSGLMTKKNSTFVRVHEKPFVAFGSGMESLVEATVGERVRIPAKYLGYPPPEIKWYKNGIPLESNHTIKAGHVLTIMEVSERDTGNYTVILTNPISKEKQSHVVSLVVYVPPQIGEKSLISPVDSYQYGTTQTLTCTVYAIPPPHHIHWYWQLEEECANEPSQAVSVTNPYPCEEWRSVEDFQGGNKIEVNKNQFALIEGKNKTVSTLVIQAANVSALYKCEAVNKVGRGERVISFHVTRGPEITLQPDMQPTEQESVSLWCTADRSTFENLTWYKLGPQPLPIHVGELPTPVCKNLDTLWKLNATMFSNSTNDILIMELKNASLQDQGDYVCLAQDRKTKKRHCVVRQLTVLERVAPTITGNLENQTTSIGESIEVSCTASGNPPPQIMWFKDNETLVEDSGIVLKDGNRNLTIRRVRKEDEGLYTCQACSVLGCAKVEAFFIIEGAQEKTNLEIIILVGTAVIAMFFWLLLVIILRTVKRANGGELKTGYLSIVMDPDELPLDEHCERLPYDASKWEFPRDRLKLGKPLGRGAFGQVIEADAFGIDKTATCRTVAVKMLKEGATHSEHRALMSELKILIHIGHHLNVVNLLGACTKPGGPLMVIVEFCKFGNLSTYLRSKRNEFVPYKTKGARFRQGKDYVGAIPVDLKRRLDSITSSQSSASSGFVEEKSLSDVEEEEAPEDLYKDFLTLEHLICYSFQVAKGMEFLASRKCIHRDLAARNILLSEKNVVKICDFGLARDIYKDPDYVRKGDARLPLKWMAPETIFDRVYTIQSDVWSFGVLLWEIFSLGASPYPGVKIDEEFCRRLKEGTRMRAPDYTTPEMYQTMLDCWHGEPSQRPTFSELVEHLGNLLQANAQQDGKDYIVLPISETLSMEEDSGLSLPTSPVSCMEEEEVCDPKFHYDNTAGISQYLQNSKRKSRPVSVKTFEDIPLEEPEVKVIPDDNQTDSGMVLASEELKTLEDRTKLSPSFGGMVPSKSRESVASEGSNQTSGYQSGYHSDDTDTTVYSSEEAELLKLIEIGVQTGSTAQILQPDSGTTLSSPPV
observable: IC50 (µM)
One number for each entry, in µM.

Query block: // query IC50 value for entry CN1C(=O)[C@@H](N2CCc3c(nn(Cc4ccccc4)c3Br)C2=O)COc2ccccc21 [TP-030-2]
Result block: 1

====

# target desc: Serine/threonine-protein kinase DCLK3 (Homo sapiens)
# Sequence (Q9C098 whole entry): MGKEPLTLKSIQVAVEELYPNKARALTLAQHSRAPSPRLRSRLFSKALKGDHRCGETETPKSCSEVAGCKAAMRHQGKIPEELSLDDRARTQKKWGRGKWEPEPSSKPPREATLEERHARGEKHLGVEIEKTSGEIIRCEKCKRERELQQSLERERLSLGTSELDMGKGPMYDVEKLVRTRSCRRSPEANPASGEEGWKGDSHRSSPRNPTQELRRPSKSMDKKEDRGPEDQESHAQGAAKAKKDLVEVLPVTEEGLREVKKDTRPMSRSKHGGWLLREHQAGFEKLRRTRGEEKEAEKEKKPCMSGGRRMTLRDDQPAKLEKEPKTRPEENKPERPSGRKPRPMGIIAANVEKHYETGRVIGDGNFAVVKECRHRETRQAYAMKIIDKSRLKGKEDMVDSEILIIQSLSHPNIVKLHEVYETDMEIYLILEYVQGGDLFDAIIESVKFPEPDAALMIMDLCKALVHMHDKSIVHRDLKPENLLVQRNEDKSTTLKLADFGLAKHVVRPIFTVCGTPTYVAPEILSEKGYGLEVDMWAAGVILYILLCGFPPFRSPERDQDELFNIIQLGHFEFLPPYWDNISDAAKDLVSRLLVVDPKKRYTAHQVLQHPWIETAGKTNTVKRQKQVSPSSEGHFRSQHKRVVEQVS
observable: pIC50
Give bare numbers, as −log10 of the molar value.

Query block: // query pIC50 value for entry "CN1C(=O)[C@@H](N2CCc3c(nn(Cc4ccccc4)c3Br)C2=O)COc2ccccc21"
Result block: 6.00

Measured values drawn from ChEMBL document CHEMBL4507326 for this set.
